- system_tested: Biotinylated KRAS G12C protein (Homo sapiens (Human), UniProt P01116, C118S/C51S/C80L/G12C)
- Sequence (P01116 other isoform, or with tags, fused parts or gaps, stated change not applied): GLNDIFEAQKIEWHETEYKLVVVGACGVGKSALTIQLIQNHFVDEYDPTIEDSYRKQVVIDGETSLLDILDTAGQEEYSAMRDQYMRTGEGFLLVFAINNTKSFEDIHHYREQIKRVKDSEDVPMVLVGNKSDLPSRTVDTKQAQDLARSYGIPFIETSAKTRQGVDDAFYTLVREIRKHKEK
- method: SOS-catalyzed nucleotide exchange assay (TR-FRET)
- Type: biochemical
- experimental_setup: in vitro apparent potency; preincubation time of 60 minutes prior to addition of SOS
- Procedure: The SOS-catalyzed nucleotide exchange assay utilizes a preformed complex of recombinant biotinylated KRAS protein containing G12C/C51S/C80L/C118S mutations (183 amino acids; biotin on K10; leader sequence which is an AviTag; referred to as SEQ ID NO: 1 or “Biotinylated KRAS G12C protein” hereafter), Bodipy-GDP, and Terbium-streptavidin. Compounds are added to this complex and then after incubation for 60 minutes, the mixture is treated with recombinant SOS protein and unlabeled GTP. […]
readout_kind: IC50 (nM)
Could you give me the number in nM? Just the number is fine.

{"compound": "C=CC(=O)N1CCN(c2nc(=O)n3c4nc(c(F)cc24)-c2c(F)cccc2OCCCc2ccnc(C(C)C)c2-3)[C@@H](C)C1 (single isomer, unassigned) [Example 10a]", "unit_spec": "nM", "IC50": 4.3}
{"compound": "C=CC(=O)N1C[C@H](C)N(c2nc(=O)n3c4nc(c(C)cc24)-c2c(F)ccc(F)c2OCCCc2ccnc(C(C)C)c2-3)C[C@H]1C (single isomer, unassigned)", "unit_spec": "nM", "IC50": 4.3}
{"compound": "C=CC(=O)N1C[C@H](C)N(c2nc(=O)n3c4nc(c(Cl)cc24)-c2c(F)cccc2OCCc2ccnc(C(C)C)c2-3)C[C@H]1C (atropisomer, axis not shown)", "unit_spec": "nM", "IC50": 2.6}
{"compound": "C=CC(=O)N1CCN(c2nc(=O)n3c4nc(c(F)cc24)-c2c(F)cccc2OCCCc2ccnc(C(C)C)c2-3)C[C@@H]1CC#N (single isomer, unassigned) [Example 11a]", "unit_spec": "nM", "IC50": 19}

For the next question, use this compound.
Form field: reported IC50 of "C=CC(=O)N1[C@H](C)CN(c2nc(=O)n3c4nc(c(F)cc24)-c2c(F)cccc2OCCCCc2ccnc(C(C)C)c2-3)C[C@@H]1C"
6.9
